# reported KD 5(+)/7(+); entries follow
Measurement target: T1, human C1s (human, UniProt P09871 16-688)
T1 construct: Analyte in the Biacore assays; also called hC1s; serum-derived human C1s (CompTech)
T1 sequence: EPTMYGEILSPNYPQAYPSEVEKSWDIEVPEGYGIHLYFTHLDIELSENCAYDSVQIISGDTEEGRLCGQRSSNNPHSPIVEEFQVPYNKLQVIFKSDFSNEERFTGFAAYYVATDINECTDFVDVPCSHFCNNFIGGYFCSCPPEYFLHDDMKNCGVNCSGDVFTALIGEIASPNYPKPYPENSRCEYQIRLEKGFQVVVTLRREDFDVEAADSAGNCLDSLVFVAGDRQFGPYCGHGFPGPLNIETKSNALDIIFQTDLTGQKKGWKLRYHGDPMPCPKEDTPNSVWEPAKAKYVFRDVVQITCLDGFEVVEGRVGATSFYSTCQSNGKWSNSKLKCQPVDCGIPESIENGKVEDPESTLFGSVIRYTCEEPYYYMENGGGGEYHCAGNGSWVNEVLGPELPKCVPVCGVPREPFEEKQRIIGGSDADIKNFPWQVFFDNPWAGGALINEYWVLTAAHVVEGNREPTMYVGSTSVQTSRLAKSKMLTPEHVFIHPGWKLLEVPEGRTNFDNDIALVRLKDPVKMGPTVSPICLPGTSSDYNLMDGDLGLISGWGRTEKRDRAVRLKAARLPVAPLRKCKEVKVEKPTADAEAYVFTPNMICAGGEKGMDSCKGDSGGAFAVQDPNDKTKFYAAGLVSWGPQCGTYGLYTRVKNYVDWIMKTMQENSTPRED
Test details: SPR; KD at pH 5.8 (1.2 mM Ca) over KD at pH 7.4 (1.2 mM Ca)

Binder	KD 5(+)/7(+)
C1_IPN92H0288-SG4GK/IPN93L0212-SK1 (antibody, human IgG4 S228P, kappa, name in Kabat numbering, V domains shown, VL substitutions from IPN009VK3, Kabat numbering; also called IPN92H0288/IPN93L0212) VH: EVMLVESGGGLVKPGGSLRLSCAASGFTFSNYAMSWVRQAPGKGLEWVATISSGGSHTYELDSVDGRFTISRDNSKDTLYLQMNSLRAEDTALYYCARLFTKHAMDYWGQGTLVTVSS VL: QIVLTQSPATLSLSPGERATLSCTASSEVSESRLHWYQQKPGKAPKLWIYSTSNLASGVPSRFSGSGSGTDYTLTISSLQPEDFATYYCHQYYRLHPITFGQGTKLEIKR	11.6
C1_IPN92H0282-SG4GK/IPN93L0091-SK1 (antibody, human IgG4 S228P, kappa, name in Kabat numbering, V domains shown, Substitutions from IPN009VH2 / IPN009VK3, Kabat numbering; also called IPN92H0282/IPN93L0091) VH: EVMLVESGGGLVKPGGSLRLSCAASGFTFSNYAMSWVRQAPGKGLEWVATISSGGSHTYELDSVDERFTISRDNSKDTLYLQMNSLRAEDTALYYCARLFTKHAMDYWGQGTLVTVSS VL: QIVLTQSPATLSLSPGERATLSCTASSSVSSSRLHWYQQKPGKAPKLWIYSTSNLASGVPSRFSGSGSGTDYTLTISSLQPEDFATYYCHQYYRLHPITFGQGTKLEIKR	8.6
C1_IPN92H0231-SG4GK/IPN93L0024-SK1 (antibody, human IgG4 S228P, kappa, name in Kabat numbering, V domains shown, Substitutions from IPN009VH2, Kabat numbering; also called IPN92H0231/IPN93L0024) VH: EVMLVESGGGLVKPGGSLRLSCAASGFTFSNYAMSWVRQAPGKGLEWVATISSGGSHTYYLDSVKGRFTISRDNSKDTLYLQMNSLRAEDTALYYCARLFTKHAMDYWGQGTLVTVSS VL: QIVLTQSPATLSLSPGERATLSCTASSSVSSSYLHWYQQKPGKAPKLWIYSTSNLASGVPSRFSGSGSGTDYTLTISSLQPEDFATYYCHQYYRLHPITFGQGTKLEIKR	7.4
